- System: SEM cells
- Procedure summary: cell viability relative to DMSO control; higher = less cytotoxic
- Measurement parameters: RPMI 5 mM glucose + 10% FBS; 48 h; 15.4 µM
Property measured: cell viability (%)
Give just the numeric value; % need not be written.

# annotated cases, reported cell viability shown
C[C@]1(c2nc3c(C(N)=O)cccc3[nH]2)CCCN1	98.1
Cc1cnc(NC(=O)Nc2cc(Br)c(C)cc2OC[C@@H]2CNCCO2)cn1	33.8
CN(NC(=O)CC(=O)NN(C)C(=S)c1ccccc1)C(=S)c1ccccc1	5.8
Cc1ccc([S+](=O)([O-])N[C@@H](Cc2ccccc2)C(=O)CCl)cc1	87
C[S+](=O)([O-])N1CCc2c(-c3cnc(N)nc3)nc(N3CCOCC3)nc21	22.2

Provide cell viability value for the following compound: Cc1cc(C(C)(C)C)c(O)c(C)c1CC1=NCCN1
51.8

Find the measured cell viability of C=C(C)[C@H]1Cc2c(ccc3c2O[C@@H]2COc4cc(OC)c(OC)cc4[C@@H]2C3=O)O1 and report it.
15.8

Provenance of the data: the supplement of paper PMC11451515
